The origin of these recorded values is patent US11279733B2.

- method.notes: in vitro
- measurement.setup: human
- Description: Cytotoxicity of the synthesised peptides was evaluated by comparison with commercially available colistin (polymyxin E), polymyxin B (Sigma chemical Co., St. Louis, Mo., U.S.A.) and synthetic octapeptin C4 by conducting lactate dehydrogenase (LDH) assay. CC50 values calculated based on curve fitting of dose dependent inhibition of cell growth represented the cytotoxicity of the peptide. […]
Positions of bridges follow the written chain, without caps; N, C: chain ends. Non-standard residues stand in square brackets, D forms with d. Residues, ends and D or L forms follow the SMILES beside them. *: point of attachment. Isonicotinoyl(2-Ph) = O=C(c1ccnc(-c2ccccc2)c1)*; Decanoyl(3R-OH) = CCCCCCC[C@@H](O)CC(=O)*; dDab = NCC[C@@H](N)C(=O)O; Dab = NCC[C@H](N)C(=O)O; Pentanoyl = CCCCC(=O)*
property: CC50 at 24 h

Example entries begin here.
| compound | CC50 at 24 h |
| --- | --- |
| CC(C)C[C@@H]1NC(=O)[C@@H](Cc2ccccc2)NC(=O)[C@H](CCN)NC(=O)[C@@H](NC(=O)[C@@H](CCN)NC(=O)c2ccnc(-c3ccccc3)c2)CCNC(=O)[C@H]([C@@H](C)O)NC(=O)[C@H](CCN)NC(=O)[C@H](CCN)NC1=O [compound 6405] ({Isonicotinoyl(2-Ph)}-[dDab][Dab][Dab][dF]L[Dab][Dab]T; lactam 2-C) | > 300 µM |
| CCCCCCC[C@@H](O)CC(=O)N[C@H](CCN)C(=O)N[C@H]1CCNC(=O)[C@H](CC(C)C)NC(=O)[C@H](CCN)NC(=O)[C@H](C)NC(=O)[C@H](CC(C)C)NC(=O)[C@@H](Cc2ccccc2)NC(=O)[C@H](CCN)NC1=O [compound 4945] ({Decanoyl(3R-OH)}-[dDab][Dab][Dab][dF]LA[Dab]L; lactam 2-C) | 181 µM |

With those in mind, consider the next compound.
So for CCCCC(=O)N[C@H](CCN)C(=O)N[C@H]1CCNC(=O)[C@H](CC(C)C)NC(=O)[C@H](CCN)NC(=O)[C@H](CCN)NC(=O)[C@H](CC(C)C)NC(=O)[C@@H](Cc2ccccc2)NC(=O)[C@H](CCN)NC1=O [compound 919] (Pentanoyl-[dDab][Dab][Dab][dF]L[Dab][Dab]L; lactam 2-C) , the logged CC50 at 24 h turned out to be > 300 µM

----------
Below, each entry is listed with its recorded CC50 at 24 h.
- method.notes: in vitro
- measurement.setup: human
Starred links: 1 amine or outer side, 2 acyl side, 3 side chain; linkers in the order of their positions; H or OH if unused. Positions of bridges follow the written chain, without caps; N, C: chain ends. Non-standard residues stand in square brackets, D forms with d. Residues, ends and D or L forms follow the SMILES beside them. *: point of attachment. Decanoyl(3R-OH) = CCCCCCC[C@@H](O)CC(=O)*; dIgl = N[C@@H](C(=O)O)C1Cc2ccccc2C1; Igl = N[C@H](C(=O)O)C1Cc2ccccc2C1; azaDab = NCCN(N[*:1])C(=O)[*:2]; dDab = NCC[C@@H](N)C(=O)O; dDap = NC[C@@H](N)C(=O)O; Dab = NCC[C@H](N)C(=O)O; Dap = NC[C@H](N)C(=O)O

| molecule | CC50 at 24 h |
| --- | --- |
| CCCCCCC[C@@H](O)CC(=O)N[C@H](CCN)C(=O)N[C@H]1CCNC(=O)[C@H](CC(C)C)NC(=O)[C@H](CCN)NC(=O)N(CCN)NC(=O)[C@H](CC(C)C)NC(=O)[C@@H](Cc2ccccc2)NC(=O)[C@H](CCN)NC1=O [compound 8641] ({Decanoyl(3R-OH)}-[dDab][Dab][Dab][dF]L[azaDab][Dab]L; lactam 2-C) | > 300 µM |
| CCCCCCC[C@@H](O)CC(=O)N[C@H](CN)C(=O)N[C@H]1CCNC(=O)[C@H](Cc2c[nH]c3ccccc23)NC(=O)[C@H](CCCCN)NC(=O)[C@H](CCCNC(=N)N)NC(=O)[C@H](C2Cc3ccccc3C2)NC(=O)[C@@H](Cc2ccccc2)NC(=O)[C@H](CCN)NC1=O [compound 8890] ({Decanoyl(3R-OH)}-[dDap][Dab][Dab][dF][Igl]RKW; lactam 2-C) | 67 µM |
| CCCCCCC[C@@H](O)CC(=O)N[C@H](CN)C(=O)N[C@H]1CCNC(=O)[C@H](Cc2c[nH]c3ccccc23)NC(=O)[C@H](CCN)NC(=O)[C@H](CCN)NC(=O)[C@H](C2Cc3ccccc3C2)NC(=O)[C@@H](C2Cc3ccccc3C2)NC(=O)[C@H](CCN)NC1=O [compound 8897] ({Decanoyl(3R-OH)}-[dDap][Dab][Dab][dIgl][Igl][Dab][Dab]W; lactam 2-C) | 27 µM |

So for CCCCCCC[C@@H](O)CC(=O)N[C@@H](CCN)C(=O)N[C@H]1CCNC(=O)[C@H](CC(C)C)NC(=O)[C@H](CN)NC(=O)[C@H](CCN)NC(=O)[C@H](CC(C)C)NC(=O)[C@@H](Cc2ccccc2)NC(=O)[C@H](CCN)NC1=O [compound 5564] ({Decanoyl(3R-OH)}-[Dab][Dab][Dab][dF]L[Dab][Dap]L; lactam 2-C) , the logged CC50 at 24 h turned out to be > 300 µM
